# credit: ChEMBL document CHEMBL4342519

- target of assay: Gastrin/cholecystokinin type B receptor (Homo sapiens)
- test method notes: Binding affinity to CCK2R (unknown origin) expressed in human A431 cells assessed as receptor-mediated drug internalization at 5 kBq incubated up to 240 mins using 177Lu labeled compound by gamma counting method relative to control
- Type: cell-based
*1 amine or outer side, *2 acyl side, *3 side chain or, on linkers, in order; H or OH if unused. Where a SMILES comes first, the peptide text is derived from it. [ ]: non-standard residue; d: D form. The star is where a group is joined. DOTA = O=C(O)CN1CCN(CC(=O)O)CCN(CC(=O)*)CCN(CC(=O)O)CC1; X5 = C[C@@H](C(=O)[*:2])n1cc([C@@H](CCC(=O)O)N[*:1])nn1; X1 = O=C(Cn1cc([C@H](Cc2ccc(O)cc2)N[*:1])nn1)[*:2]; Nle = CCCC[C@H](N)C(=O)O
Label 1 when Drug uptake is strictly below 30%; at or above that, label -1.

Take the compound `CCCC[C@H](NC(=O)[C@H](Cc1c[nH]c2ccccc12)NC(=O)CNC(=O)[C@H](Cc1ccc(O)cc1)NC(=O)[C@H](C)NC(=O)[C@@H](CCC(=O)O)NC(=O)CN1CCN(CC(=O)O)CCN(CC(=O)O)CCN(CC(=O)O)CC1)c1cn([C@@H](CC(=O)O)C(=O)N[C@@H](Cc2ccccc2)C(N)=O)nn1` and say whether its Drug uptake is less than 30%.
1

I'd appreciate it if you could check whether CCCC[C@H](NC(=O)[C@H](Cc1c[nH]c2ccccc12)NC(=O)CNC(=O)[C@H](Cc1ccc(O)cc1)NC(=O)[C@H](C)n1cc([C@@H](CCC(=O)O)NC(=O)CN2CCN(CC(=O)O)CCN(CC(=O)O)CCN(CC(=O)O)CC2)nn1)C(=O)N[C@@H](CC(=O)O)C(=O)N[C@@H](Cc1ccccc1)C(N)=O ({DOTA}-[X5]YGW[Nle]DF-NH2) has Drug uptake smaller than 30%.
-1

Would you kindly verify if Drug uptake of CCCC[C@H](NC(=O)[C@H](Cc1c[nH]c2ccccc12)NC(=O)CNC(=O)[C@H](Cc1ccc(O)cc1)NC(=O)[C@H](C)NC(=O)[C@@H](CCC(=O)O)NC(=O)CN1CCN(CC(=O)O)CCN(CC(=O)O)CCN(CC(=O)O)CC1)C(=O)N[C@@H](CC(=O)O)C(=O)N[C@@H](Cc1ccccc1)C(N)=O ({DOTA}-[dE]AYGW[Nle]DF-NH2) is strictly less than 30%?
-1

Identify whether the compound `CCCC[C@H](NC(=O)[C@H](Cc1c[nH]c2ccccc12)NC(=O)CNC(=O)[C@H](Cc1ccc(O)cc1)NC(=O)[C@H](C)NC(=O)[C@@H](CCC(=O)O)NC(=O)CN1CCN(CC(=O)O)CCN(CC(=O)O)CCN(CC(=O)O)CC1)C(=O)N[C@@H](CC(=O)O)C(=O)N[C@@H](Cc1ccccc1)c1c[nH]nn1` records Drug uptake below 30%.
1

In the record for CCCC[C@H](NC(=O)[C@H](Cc1c[nH]c2ccccc12)NC(=O)Cn1cc([C@H](Cc2ccc(O)cc2)NC(=O)[C@H](C)NC(=O)[C@@H](CCC(=O)O)NC(=O)CN2CCN(CC(=O)O)CCN(CC(=O)O)CCN(CC(=O)O)CC2)nn1)C(=O)N[C@@H](CC(=O)O)C(=O)N[C@@H](Cc1ccccc1)C(N)=O ({DOTA}-[dE]A[X1]W[Nle]DF-NH2) , is Drug uptake less than 30%?
-1

Lab note: confirm whether the reported Drug uptake for this compound is below 30%, equality not counting. compound: `CCCC[C@H](NC(=O)[C@H](Cc1c[nH]c2ccccc12)NC(=O)CNC(=O)[C@H](Cc1ccc(O)cc1)NC(=O)[C@H](C)NC(=O)[C@@H](CCC(=O)O)NC(=O)CN1CCN(CC(=O)O)CCN(CC(=O)O)CCN(CC(=O)O)CC1)C(=O)N[C@@H](CC(=O)O)c1cn([C@@H](Cc2ccccc2)C(N)=O)nn1`
1

Say whether its Drug uptake is strictly beneath 30%. Entry: `CCCC[C@H](NC(=O)[C@H](Cc1c[nH]c2ccccc12)NC(=O)CNC(=O)C[C@H](Cc1ccc(O)cc1)NC(=O)[C@H](C)NC(=O)[C@@H](CCC(=O)O)NC(=O)CN1CCN(CC(=O)O)CCN(CC(=O)O)CCN(CC(=O)O)CC1)C(=O)N[C@@H](CC(=O)O)C(=O)N[C@@H](Cc1ccccc1)C(N)=O`
-1
